Recorded %Inh for the following compounds
system: TNK2; conditions: concentration: 1 μM,replicates: in singlicate; n = 1;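 further: KINOMEscan kinase panel screen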
Unit % implied. Number only.

Record excerpt, results attached:
compound	endpoint.name	numeric.readout
Cc1n[nH]c2ccc(-c3cc(OC[C@@H](N)Cc4ccccc4)cnc3-c3ccoc3)cc12.O=C(O)C(F)(F)F.O=C(O)C(F)(F)F [GSK507358]	%Inh	10
CCN(CC)CCCCNc1ncc2cc(-c3c(Cl)cccc3Cl)c(NC(=O)NC(C)(C)C)nc2n1	%Inh	69
CN(C)CCOc1ccc(-c2cc(-c3c[nH]nc3-c3ccccn3)ccn2)cc1 [GW835314]	%Inh	58
Cc1ccc(-n2nc(C(C)(C)C)cc2NC(=O)Nc2ccc(OCCN3CCOCC3)c3ccccc23)cc1 [GW839464]	%Inh	31
Cc1cc2cn[nH]c2cc1-c1cccc2c(N)c(C(N)=O)nnc12	%Inh	94.2

Ask | Name the reported %Inh value associated with the compound "CC(C)N1C(=O)Cc2cc(Nc3ncc(C(F)(F)F)c(NCc4cccc(S(C)(=O)=O)c4)n3)ccc21"
Reply | 13

Ask | Reported %Inh, compound CN(C)CC(O)COc1ccc(Nc2nccc(-c3cnn4nc(N5CCOCC5)ccc34)n2)cc1 (stereo not drawn) [GW767488] : ____
Reply | 0

Hello, the source for this data is paper PMC5540273, in case you need it.
